Just for reference, patent US20230416371A1 is where these values come from.

# study-system: human FcγRIIa R (allotype R131) extracellular domain (human) (UniProt P12318)
# Sequence (P12318 34-217 H167R): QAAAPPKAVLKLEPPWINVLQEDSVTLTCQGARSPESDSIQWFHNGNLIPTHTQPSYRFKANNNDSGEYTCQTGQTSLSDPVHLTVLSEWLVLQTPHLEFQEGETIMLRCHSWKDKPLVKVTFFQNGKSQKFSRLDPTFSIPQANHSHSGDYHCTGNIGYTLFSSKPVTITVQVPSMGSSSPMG
# test-name: SPR Biacore 8K+, 25 C, antibody captured, FcγR as analyte, 1:1 Langmuir model
measured-quantity: pKd
A value of pKd is the negative decimal logarithm of a concentration given in moles per litre.

pKd lookup needed for EGL-GASDALIE (H240-GASDALIE/L73-k0) (antibody) , thanks.
6.79
